- test_protocol: Rat Hepatocyte Stability (Test E)
- Type: in vitro ADME
- experimental_conditions: rat, hepatocytes, geometric mean if run multiple times
Consider the following molecules; for each one, report its hepatocyte CLint.

Some molecules with recorded hepatocyte CLint:
molecule="O=C(N[C@@H]1[C@H]2CC[C@H](C2)[C@@H]1C(=O)Nc1cccc(S(=O)(=O)C(F)(F)F)c1)c1cc(O[C@H]2CC[C@@H](C(=O)O)CC2)c(F)cc1F [Example 430]" measure="hepatocyte CLint" test_value="22 µL/min/1e6 cells"
molecule="COc1cc(F)c(O[C@H]2CC[C@@H](C(=O)O)CC2)cc1C(=O)N[C@@H]1[C@H]2CC[C@H](C2)[C@@H]1C(=O)Nc1ccc(C#N)c(Br)c1 [Example 27]" measure="hepatocyte CLint" test_value="> 300 µL/min/1e6 cells"
molecule="CC1(CNC(=O)[C@H]2[C@@H]3CC[C@@H](C3)[C@H]2NC(=O)c2cc(O[C@H]3CC[C@@](C)(C(=O)O)CC3)c(F)cc2OCF)CCC1 [Example 4]" measure="hepatocyte CLint" test_value="6.9 µL/min/1e6 cells"
molecule="COc1cc(F)c(O[C@H]2C[C@H](C(=O)O)C2)cc1C(=O)NC1[C@H]2CC[C@H](C2)[C@@H]1C(=O)Nc1cccc(S(=O)(=O)C(F)(F)F)c1 (some centres unmarked) [Example 443]" measure="hepatocyte CLint" test_value="21 µL/min/1e6 cells"
molecule="COc1cc(F)c(O[C@H]2CC[C@@](C)(C(=O)O)CC2)cc1C(=O)N[C@@H]1CCC[C@@H]1C(=O)NCC(C)(C)C#N [Example 69]" measure="hepatocyte CLint" test_value="6.4 µL/min/1e6 cells"

Below is a list of molecules. For each, state its recorded hepatocyte CLint.
1. COc1cc(F)c(O[C@H]2CC[C@@](C)(C(=O)O)CC2)cc1C(=O)NC1C2CCC(C2)C1C(=O)Nc1cccc(S(=O)(=O)C(F)(F)F)c1 (single isomer, unassigned) [Example 586]
2. COc1cc(C#N)c(-c2ccc(OCC(=O)O)cc2)cc1C(=O)N[C@@H]1[C@H]2CC[C@H](C2)[C@@H]1C(=O)Nc1cccc(S(=O)(=O)C(F)(F)F)c1 [Example 329]
3. COc1cc(F)c(-c2cccc(C(=O)O)c2)cc1C(=O)N[C@@H]1[C@H](C(=O)Nc2cccc(S(=O)(=O)C(F)(F)F)c2)[C@H]2C=C[C@@H]1C2 (single isomer, unassigned) [Example 555]
4. COc1cc(F)c(-c2ccc(C(=O)O)cc2)cc1C(=O)N[C@H]1[C@@H](C(=O)Nc2ccc(F)c(S(=O)(=O)C(F)(F)F)c2)[C@@H]2C=C[C@H]1C2 (racemic) [Example 296]
5. COc1cc(C#N)c(O[C@H]2CC[C@@](C)(C(=O)O)CC2)cc1C(=O)N[C@@H]1[C@H]2CC[C@H](C2)[C@@H]1C(=O)NCC1CC1 [Example 71]

## Result
17 µL/min/1e6 cells
26 µL/min/1e6 cells
18 µL/min/1e6 cells
17 µL/min/1e6 cells
28 µL/min/1e6 cells

## Task Value lookup for hepatocyte CLint; key = CCC(CC)CNC(=O)[C@H]1[C@@H]2CC[C@@H](C2)[C@H]1NC(=O)c1cc(O[C@H]2CC[C@@](C)(C(=O)O)CC2)c(C#N)cc1OC [Example 88]
## Result 26 µL/min/1e6 cells
